Test system: L1210 leukemia ip in BDF1 mice, survival T/C
Experiment: NCI In Vivo Anticancer Drug Screen. Data for tumor model L1210 Leukemia (intraperitoneal) in B6D2F1 (BDF1) mice
Conditions: endpoint: mean survival time; dose: 200.0 mg/kg/injection; schedule: Q01DX001 (ip); vehicle: saline; higher = longer survival
Inconclusive results and toxic doses are left out.
MEASUREMENT KIND: T/C

MOLECULAR STRING: COc1ccccc1CN1CCCN(Cc2ccccc2OC)C1c1cc(Cl)ccc1O
T/C: 97 % of control
//
MOLECULAR STRING: CCOC(=O)N1C=Cc2c(c3ccccc3n2C)N1C(=O)OCC
T/C: 104 % of control

IN: Read the entry OCc1ncn[nH]1 and write its reported T/C.
OUT: 95 % of control
